Each entry below lists one item and its recorded Giardia (16 uM) Mean % inhibition value.
Test system: G. lamblia trophozoites (luciferase expressing, WBC6)
Procedure summary: microbe, parasite or virus in culture
Format: cell-based, Giardia lamblia
Measurement conditions: initial Pathogen Box screen, single concentration 16 µM, inhibition compared to DMSO wells
Answer with a number only, understood to be in %.

// below: answered compounds
{"Compound": "O=C(NCCc1ccn(-c2ccccc2)n1)C1CCCCC1 [MMV688795]", "Tested system": "G. lamblia trophozoites (luciferase expressing, WBC6)", "Giardia (16 uM) Mean % inhibition, %": 29}
{"Compound": "N#CCN(CCCCN1CCN(c2ccc(F)cc2)CC1)C(=O)OCc1ccccc1 [MMV675997]", "Tested system": "G. lamblia trophozoites (luciferase expressing, WBC6)", "Giardia (16 uM) Mean % inhibition, %": 29}
{"Compound": "COc1cccc(-c2cc3c(Nc4cccnc4)nccc3[nH]2)c1 [MMV392832]", "Tested system": "G. lamblia trophozoites (luciferase expressing, WBC6)", "Giardia (16 uM) Mean % inhibition, %": 50}
{"Compound": "Nc1ncc(Br)cc1-c1nc2cc(Cl)cnc2[nH]1 [MMV676358]", "Tested system": "G. lamblia trophozoites (luciferase expressing, WBC6)", "Giardia (16 uM) Mean % inhibition, %": 90}
{"Compound": "O=C(C1CCCCC1)N1CC(=O)N2CCc3ccccc3[C@@H]2C1 [MMV002529]", "Tested system": "G. lamblia trophozoites (luciferase expressing, WBC6)", "Giardia (16 uM) Mean % inhibition, %": 16}

With those in mind, consider the next compound.
Could you tell me which Giardia (16 uM) Mean % inhibition is on file for CC(C)C(C(=O)Nc1ccc(S(=O)(=O)N(C)C)cc1)c1ccc(Cl)cc1 (stereo not drawn) [MMV020391] ?
8
